- Test system: Chenopodium album (CHEAL), common lambsquarters
- Assay Info: Postemergence herbicide evaluation, growth of Chenopodium album (CHEAL)
- Type: in vivo
- Test Settings: Chenopodium album, post-emergence, 504 h, 560 g ae/ha, 21 DAA, percent reduction in plant size relative to untreated control; read-out: Ave. CHEAL
Classes (pest or weed control at 560 g/ha): bucket A: < 70%; bucket B: ≥ 70% and < 80%; bucket C: ≥ 80%

Compound	Classification
CS/C(C)=N\OC(=O)COc1ccc(Cl)cc1Cl [Compound A10]	bucket A

Req: Returns: class label. Input: O=C(COc1ccc(Cl)cc1Cl)ONC(=O)c1ccc(C(=O)NOC(=O)COc2ccc(Cl)cc2Cl)cc1 [Compound B4]
Resp: bucket A

Req: Returns: class label. Input: CN(NC(=O)COc1ccc(Cl)cc1Cl)C(=O)c1ccccc1 [Compound D9]
Resp: bucket C

====

- Assay Info: Volatility of compounds measured by thermogravimetric analysis (TGA)
- Assay type: physicochemical
// returns False unless TGA Data (rate of weight loss, volatility) is strictly below 0.5 µg/min, in which case True

Compound	Classification
O=C(COc1ccc(Cl)cc1Cl)OCCCCCCOC(=O)COc1ccc(Cl)cc1Cl [Compound B12]	True
O=C(COc1ccc(Cl)cc1Cl)O/N=C/c1ccccc1 [Compound A2]	False
COc1ccc(CONC(=O)COc2ccc(Cl)cc2Cl)cc1 [Compound D20]	True
O=C(COc1ccc(Cl)cc1Cl)OCc1ccc(COC(=O)COc2ccc(Cl)cc2Cl)cc1 [Compound B1]	True
O=C(COc1ccc(Cl)cc1Cl)Nc1cccnc1 [Compound D27]	True
O=C(COc1ccc(Cl)cc1Cl)O/N=C/c1cccs1 [Compound A23]	True
O=C(COc1ccc(Cl)cc1Cl)ONC(=O)c1ccc(Cl)cc1 [Compound A28]	True
O=C(COc1ccc(Cl)cc1Cl)NOCc1ccccc1 [Compound D8]	True
N/C(=N\OC(=O)COc1ccc(Cl)cc1Cl)c1ccccc1 [Compound A3]	False
O=C(COc1ccc(Cl)cc1Cl)O/N=C/c1cccnc1 [Compound A29]	True

Req: Please check: TGA Data (rate of weight loss, volatility) for O=C(COc1ccc(Cl)cc1Cl)Oc1ncc(Cl)cn1 [Compound E13] , strictly under 0.5 µg/min or not?
Resp: True

Req: Please check: TGA Data (rate of weight loss, volatility) for O=C(COc1ccc(Cl)cc1Cl)NNC(=O)c1ccccc1 [Compound D10] , strictly under 0.5 µg/min or not?
Resp: True

Req: Please check: TGA Data (rate of weight loss, volatility) for O=C(COc1ccc(Cl)cc1Cl)O/N=C1\CCCc2ccccc21 [Compound A25] , strictly under 0.5 µg/min or not?
Resp: False

Req: Please check: TGA Data (rate of weight loss, volatility) for O=C(COc1ccc(Cl)cc1Cl)Oc1ccncn1 [Compound E8] , strictly under 0.5 µg/min or not?
Resp: False

====

- System: Chenopodium album (CHEAL), common lambsquarters
- Assay Info: Postemergence herbicide evaluation, growth of Chenopodium album (CHEAL)
- Assay type: in vivo
- Test Settings: Chenopodium album, post-emergence, 168 h, 280 g ae/ha, 7 DAA, percent reduction in plant size relative to untreated control; read-out: Ave. CHEAL
Parameter: pest or weed control at 280 g/ha (%)
Give a bare numeral; the unit % is implied.

Some compounds with known pest or weed control at 280 g/ha results, for comparison:
Compound	Readout Value
O=C(COc1ccc(Cl)cc1Cl)ONC(=O)c1ccc(C(=O)NOC(=O)COc2ccc(Cl)cc2Cl)cc1 [Compound B4]	63
O=C(Cc1ccccc1)NOC(=O)COc1ccc(Cl)cc1Cl [Compound A13]	68
N/C(Cc1ccccc1)=N\OC(=O)COc1ccc(Cl)cc1Cl [Compound A17]	70
Cc1ccc(S(=O)(=O)NC(=O)COc2ccc(Cl)cc2Cl)cc1 [Compound D5]	65
CCO/C(CC)=N\OC(=O)COc1ccc(Cl)cc1Cl [Compound A9]	70
O=C(COc1ccc(Cl)cc1Cl)O/N=C/c1ccc(/C=N/OC(=O)COc2ccc(Cl)cc2Cl)cc1 [Compound B3]	65
O=C(COc1ccc(Cl)cc1Cl)ON1CCCCC1 [Compound A11]	68
O=C(COc1ccc(Cl)cc1Cl)NNC(=O)c1ccccc1 [Compound D10]	63

Could you now consider this next compound?
Kindly note: Chenopodium album (CHEAL), common lambsquarters, O=C(COc1ccc(Cl)cc1Cl)ON1C(=O)c2ccccc2C1=O [Compound A15] , pest or weed control at 280 g/ha value reported: 68

====

- Test system: glyphosate resistant Conyza canadensis (L.) (ERICA), horseweed
- Assay Info: Postemergence herbicide evaluation, growth of Conyza canadensis (ERICA)
- Assay type: in vivo
- Test Settings: Erigeron canadensis, post-emergence, 168 h, 280 g ae/ha, 7 DAA, percent reduction in plant size vs untreated control; read-out: Ave. ERICA
Decide by pest or weed control at 280 g/ha: equal to or exceeding 80% means yes (1), less means no (0).

Here are 3 molecules together with their reported answers.
Molecule	Study Target	Classification
C/C(=N\OC(=O)COc1ccc(Cl)cc1Cl)C(=O)c1ccccc1 [Compound A22]	glyphosate resistant Conyza canadensis (L.) (ERICA), horseweed	yes (1)
CONC(=O)COc1ccc(Cl)cc1Cl [Compound D19]	glyphosate resistant Conyza canadensis (L.) (ERICA), horseweed	yes (1)
CCN(CC)OC(=O)COc1ccc(Cl)cc1Cl [Compound A21]	glyphosate resistant Conyza canadensis (L.) (ERICA), horseweed	yes (1)

Req: Hello, I need to know if COc1ccc(CONC(=O)COc2ccc(Cl)cc2Cl)cc1 [Compound D20] has measured pest or weed control at 280 g/ha not below 80%. Thanks!
Resp: no (0)

====

Reported values of pest or weed control at 560 g/ha for individual entries
- Test system: Ambrosia artemisiifolia (AMBEL), common ragweed
- Assay Info: Postemergence herbicide evaluation, growth of Ambrosia artemisiifolia (AMBEL)
- Type: in vivo
- Test Settings: Ambrosia artemisiifolia, post-emergence, 168 h, 560 g ae/ha, 7 DAA, percent reduction in plant size relative to untreated control; read-out: AVE. AMBEL
Give a bare numeral; the unit % is implied.

Chem Smiles	Readout Value
O=C(COc1ccc(Cl)cc1Cl)NOCc1ccccc1	75
C/C(N)=N/OC(=O)COc1ccc(Cl)cc1Cl	75
O=C(COc1ccc(Cl)cc1Cl)ONC(=O)c1ccc(C(=O)NOC(=O)COc2ccc(Cl)cc2Cl)cc1	65
O=C(COc1ccc(Cl)cc1Cl)O/N=C/c1ccc(/C=N/OC(=O)COc2ccc(Cl)cc2Cl)cc1	48

Could you now consider this next compound?
According to the records, this compound C/C(C/C(C)=N/OC(=O)COc1ccc(Cl)cc1Cl)=N\OC(=O)COc1ccc(Cl)cc1Cl displays pest or weed control at 560 g/ha of 70

====

Reported values of pest or weed control at 560 g/ha for individual entries
- Tested on: Chenopodium album (CHEAL), common lambsquarters
- Assay Info: Postemergence herbicide evaluation, growth of Chenopodium album (CHEAL)
- Assay type: in vivo
- Test Settings: Chenopodium album, post-emergence, 504 h, 560 g ae/ha, 21 DAA, percent reduction in plant size vs untreated control; read-out: Ave. CHEAL
Give a bare numeral; the unit % is implied.

According to the records, this compound CCN(CC)OC(=O)COc1ccc(Cl)cc1Cl [Compound A21] displays pest or weed control at 560 g/ha of 99

According to the records, this compound O=C(COc1ccc(Cl)cc1Cl)Oc1cccnc1 [Compound E9] displays pest or weed control at 560 g/ha of 93.5

According to the records, this compound O=C(COc1ccc(Cl)cc1Cl)ONC(=O)C1CCCC1 [Compound A20] displays pest or weed control at 560 g/ha of 96

According to the records, this compound Cc1cc(NC(=O)COc2ccc(Cl)cc2Cl)n(C)n1 [Compound D14] displays pest or weed control at 560 g/ha of 100

According to the records, this compound O=C(COc1ccc(Cl)cc1Cl)NOCCc1ccccc1 [Compound D18] displays pest or weed control at 560 g/ha of 100

According to the records, this compound O=C(COc1ccc(Cl)cc1Cl)Nc1ccnc(Cl)c1 [Compound D13] displays pest or weed control at 560 g/ha of 92.5

====

Reported values of pest or weed control at 560 g/ha for individual entries
- System: weeds ABUTH, AMATA, AMBEL, CHEAL, ERICA
- Assay Info: Postemergence herbicide evaluation, overall average % weed control (ABUTH, AMATA, AMBEL, CHEAL, ERICA)
- Format: in vivo
- Test Settings: post-emergence, 168 h, 560 g ae/ha, 7 DAA; read-out: Overall Ave % Weed Control
Give a bare numeral; the unit % is implied.

Some molecules with known pest or weed control at 560 g/ha results, for comparison:
Molecule	Parameter	Readout Value
COc1ncc(OC(=O)COc2ccc(Cl)cc2Cl)cn1 [Compound E12]	pest or weed control at 560 g/ha	73.5
O=C(COc1ccc(Cl)cc1Cl)Oc1cncnc1 [Compound E14]	pest or weed control at 560 g/ha	81.2

According to the records, this molecule O=C(COc1ccc(Cl)cc1Cl)Nc1cc[nH]n1 [Compound D21] displays pest or weed control at 560 g/ha of 76.5

According to the records, this molecule C/C(=N\OC(=O)COc1ccc(Cl)cc1Cl)c1ccncc1 [Compound A27] displays pest or weed control at 560 g/ha of 85

According to the records, this molecule C[N+](C)(C)CCOC(=O)COc1ccc(Cl)cc1Cl.[Cl-] [Compound E3] displays pest or weed control at 560 g/ha of 77

Source listed as patent US20260042731A1.
